Measured abundance fitness, listed per entry.
B1: Mineralocorticoid receptor, residues 600 to 675; numbered along this chain, P08235 (parent)
chain: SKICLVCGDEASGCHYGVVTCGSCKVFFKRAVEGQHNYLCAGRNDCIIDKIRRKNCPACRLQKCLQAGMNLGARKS

Variants of: B1
method_notes: abundance fitness (aPCA) (normalised: wild type 0, dead -1); higher = more abundant; growth selection in yeast, the domain comes from the species named
experimental_parameters: Homo sapiens
Just the number, please, no unit attached.

# count of solved cases: 5
- sequence_input: "SKICLVCGDEASGCHYGVVTCGCCKVFFKRAVEGQHNYLCAGRNDCIIDKIRRKNCPACRLQKCLQAGMNLGARKS [S23C]"
  readout_number: -0.253
- sequence_input: "SKICLVCMDEASGCHYGVVTCGSCKVFFKRAVEGQHNYLCAGRNDCIIDKIRRKNCPACRLQKCLQAGMNLGARKS [G8M]"
  readout_number: -0.062
- sequence_input: "SKICLVCGDEASGCHYGVVTCGSCKVFFKRAVEGQHNYLCAGRNDCIIDKIRRKNCPACRLQKCLQAGCNLGARKS [M69C]"
  readout_number: -0.128
- sequence_input: "SKICLVCGDEASGCHYGVVTCGSCKVFFKRAVAGQHNYLCAGRNDCIIDKIRRKNCPACRLQKCLQAGMNLGARKS [E33A]"
  readout_number: -0.28
- sequence_input: "SKICLVCGDPASGCHYGVVTCGSCKVFFKRAVEGQHNYLCAGRNDCIIDKIRRKNCPACRLQKCLQAGMNLGARKS [E10P]"
  readout_number: -0.108

Problem: Fill in the blank: the reported abundance fitness of SKICLVCGDEASGCHYGVVTCGSCKVFFKRAVEGQHNYLCAGRNDCIIDKIRRYNCPACRLQKCLQAGMNLGARKS [K54Y] is ____.
Solution: -0.032

Problem: Fill in the blank: the reported abundance fitness of SKICLVCDDEASGCHYGVVTCGSCKVFFKRAVEGQHNYLCAGRNDCIIDKIRRKNCPACRLQKCLQAGMNLGARKS [G8D] is ____.
Solution: -0.085

Problem: Fill in the blank: the reported abundance fitness of SKICLVCGDEASGCHYGVVTCGSCKVFFKRAVEGQHNYLCAGRNDCIIDKIRRKECPACRLQKCLQAGMNLGARKS [N55E] is ____.
Solution: -0.082
